Target: 3-hydroxy-3-methylglutaryl-coenzyme A reductase (Homo sapiens)
Sequence (P04035 whole entry): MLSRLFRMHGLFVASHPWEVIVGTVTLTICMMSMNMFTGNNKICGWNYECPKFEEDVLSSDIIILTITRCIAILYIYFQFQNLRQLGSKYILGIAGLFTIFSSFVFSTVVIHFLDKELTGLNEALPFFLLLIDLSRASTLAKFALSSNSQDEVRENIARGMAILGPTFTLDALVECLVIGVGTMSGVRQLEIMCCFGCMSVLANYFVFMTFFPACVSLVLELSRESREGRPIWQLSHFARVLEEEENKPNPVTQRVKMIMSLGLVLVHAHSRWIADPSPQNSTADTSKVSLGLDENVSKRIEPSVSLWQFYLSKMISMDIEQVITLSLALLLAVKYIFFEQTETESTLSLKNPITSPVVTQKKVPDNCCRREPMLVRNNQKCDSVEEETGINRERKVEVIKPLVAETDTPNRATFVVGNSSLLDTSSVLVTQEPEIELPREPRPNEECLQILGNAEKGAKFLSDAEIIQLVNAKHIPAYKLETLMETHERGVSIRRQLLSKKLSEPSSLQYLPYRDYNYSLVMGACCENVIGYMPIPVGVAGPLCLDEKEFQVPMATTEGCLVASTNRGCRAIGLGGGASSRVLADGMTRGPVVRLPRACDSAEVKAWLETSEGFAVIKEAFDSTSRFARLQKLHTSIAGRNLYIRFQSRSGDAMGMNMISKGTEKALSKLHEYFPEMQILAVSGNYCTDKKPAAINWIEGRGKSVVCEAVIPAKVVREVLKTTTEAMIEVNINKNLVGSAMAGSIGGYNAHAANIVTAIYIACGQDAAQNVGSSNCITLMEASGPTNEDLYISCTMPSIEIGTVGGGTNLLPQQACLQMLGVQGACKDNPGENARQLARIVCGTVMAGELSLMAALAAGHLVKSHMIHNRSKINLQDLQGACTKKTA
pIC50: −log10 of the molar value.
Reported pIC50 is given for each of the following compounds.
property: pIC50

>>> df
                                   compound  property  measurement
0  O=C1C[C@H](O)C[C@@H](/C=C/c2c(C3CC3)nc3cc(Sc4ccc(F)cc4)c(F)cc3c2Sc2ccc(F)cc2)O1     pIC50         4.34
1  COc1ccc2nc(C3CC3)c(/C=C/[C@@H]3C[C@@H](O)CC(=O)O3)c(Sc3ccc(C(C)C)cc3)c2c1     pIC50         4.38
2  CC(C)c1ccc(Sc2c(/C=C/[C@@H]3C[C@@H](O)CC(=O)O3)c(C3CC3)nc3ccccc23)cc1     pIC50         4.95
3  O=C(O)C[C@H](O)C[C@H](O)/C=C/c1c(C2CC2)nc2ccccc2c1-c1ccc(F)cc1 [PITAVASTATIN CALCIUM]     pIC50         5.05
